Each entry below lists one item and its recorded IC50 value.
- test.target: X-linked inhibitor of apoptosis protein (XIAP) (Homo sapiens, UniProt P98170)
- Construct: GST-tagged XIAP-BIR3 domain
- Sequence (P98170 241-356 limits assumed): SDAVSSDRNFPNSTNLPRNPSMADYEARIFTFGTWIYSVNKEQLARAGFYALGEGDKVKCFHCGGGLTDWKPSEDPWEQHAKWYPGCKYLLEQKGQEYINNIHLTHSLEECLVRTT
- method: fluorescence polarization displacement of 5-FAM Smac/Diablo peptide from recombinant BIR3
- Type: binding
Enter your answer as a number in µM; do not include the unit.

Previously resolved entries follow.
test.smiles | observable | result.number
CC(C)c1ccc(O)c(=O)cc1 | IC50 | 56.2
CCCCCCCCCCCC1=C(O)C(=O)C=C(O)C1=O | IC50 | 3.1
CC(C)c1cccc(=O)c(O)c1 | IC50 | 58.5

The record that follows has no IC50 shown yet.
Bench note: what IC50 did O=c1cccccc1O show?
83.1
